Tested on: Digitaria sanguinalis (DIGSA)
Experiment: Post-emergence efficacy, Method A
Assay type: in vivo
Settings: Digitaria sanguinalis, post-emergence, 312 h; Application rate 500 g/Ha; evaluated after 13 days; 100=total damage to plant, 0=no damage to plant; read-out: Control of weed species after post-emergence application, DIGSA
Below: a set of entries, each annotated with reported pest or weed control at 500 g/ha.
endpoint.label: pest or weed control at 500 g/ha (%)

> print(dat)
                                    compound                   assay.system                    endpoint.label  readout.units  data.value
 1  O=S(=O)([O-])CCC[n+]1ccc(-c2ccnc(Cl)n2)cn1 [Compound A53]  Digitaria sanguinalis (DIGSA)  pest or weed control at 500 g/ha              %          80
 2  Cc1cc(Cl)cnc1-c1cc[n+](CCS(=O)(=O)[O-])nc1 [Compound A103]  Digitaria sanguinalis (DIGSA)  pest or weed control at 500 g/ha              %          20
 3  Nc1cnc(-c2cc[n+](CCC(=O)[O-])nc2)nc1 [Compound A44]  Digitaria sanguinalis (DIGSA)  pest or weed control at 500 g/ha              %          40
 4  Cc1cnc(-c2cc[n+](CCC(=O)O)nc2)c(Cl)c1 [Compound A137]  Digitaria sanguinalis (DIGSA)  pest or weed control at 500 g/ha              %          40
 5  O=C(O)CC[n+]1ccc(-c2cnc(C(F)(F)F)cn2)cn1 [Compound A121]  Digitaria sanguinalis (DIGSA)  pest or weed control at 500 g/ha              %          40
 6  O=S(=O)([O-])CC[n+]1ccc(-c2ncc(Cl)cc2Cl)cn1 [Compound A142]  Digitaria sanguinalis (DIGSA)  pest or weed control at 500 g/ha              %          40
 7  O=S(=O)([O-])CC[n+]1ccc(-c2cncc(C(F)(F)F)n2)cn1 [Compound A110]  Digitaria sanguinalis (DIGSA)  pest or weed control at 500 g/ha              %          40
 8  O=S(=O)([O-])CC[n+]1ccc(-c2ncc(Cl)cn2)cn1 [Compound A17]  Digitaria sanguinalis (DIGSA)  pest or weed control at 500 g/ha              %          60
 9  O=S(=O)([O-])CC[n+]1ccc(-c2nccc(C3CC3)n2)cn1 [Compound A50]  Digitaria sanguinalis (DIGSA)  pest or weed control at 500 g/ha              %          50
10  Cc1cncc(-c2cc[n+](CCC(=O)O)nc2)n1 [Compound A85]  Digitaria sanguinalis (DIGSA)  pest or weed control at 500 g/ha              %          90
11  O=C(O)CC[n+]1ccc(-c2cc(C(F)(F)F)ncn2)cn1 [Compound A119]  Digitaria sanguinalis (DIGSA)  pest or weed control at 500 g/ha              %          40
